Biological target: HIV-1 Env of pseudovirus isolate MGRM-G-027 (subtype G) (HIV-1)
Test: cell-based or functional assay

binder	relationOperator	IC50 [µg/mL]
PGT-127 (antibody, V domains shown) VH: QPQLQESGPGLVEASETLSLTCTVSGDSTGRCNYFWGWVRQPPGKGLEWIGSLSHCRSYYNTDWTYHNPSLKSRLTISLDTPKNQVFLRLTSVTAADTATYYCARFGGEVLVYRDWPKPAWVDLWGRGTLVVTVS VL: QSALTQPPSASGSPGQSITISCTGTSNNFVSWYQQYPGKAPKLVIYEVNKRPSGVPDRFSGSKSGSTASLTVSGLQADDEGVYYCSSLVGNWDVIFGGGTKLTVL	>	50
PGT-126 (antibody, V domains shown) VH: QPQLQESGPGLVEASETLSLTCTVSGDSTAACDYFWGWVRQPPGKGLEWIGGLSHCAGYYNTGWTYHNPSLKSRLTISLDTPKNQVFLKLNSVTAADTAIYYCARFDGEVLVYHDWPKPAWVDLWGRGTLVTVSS VL: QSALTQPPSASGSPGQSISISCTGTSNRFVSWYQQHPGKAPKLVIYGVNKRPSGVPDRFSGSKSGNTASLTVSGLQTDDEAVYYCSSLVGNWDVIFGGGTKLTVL	=	0.875
PGT-128 (antibody, V domains shown) VH: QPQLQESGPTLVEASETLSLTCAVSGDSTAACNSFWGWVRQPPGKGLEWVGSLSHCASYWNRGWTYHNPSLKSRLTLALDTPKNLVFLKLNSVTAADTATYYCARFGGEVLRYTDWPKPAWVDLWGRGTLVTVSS VL: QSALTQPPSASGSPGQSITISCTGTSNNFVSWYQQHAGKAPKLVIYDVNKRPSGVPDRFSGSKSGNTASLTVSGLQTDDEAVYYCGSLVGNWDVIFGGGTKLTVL	=	0.313
PGT-136 (antibody, V domains shown) VH: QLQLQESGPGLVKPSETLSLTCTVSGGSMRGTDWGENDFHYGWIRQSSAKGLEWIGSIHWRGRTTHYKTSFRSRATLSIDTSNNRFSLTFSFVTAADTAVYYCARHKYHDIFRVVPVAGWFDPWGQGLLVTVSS VL: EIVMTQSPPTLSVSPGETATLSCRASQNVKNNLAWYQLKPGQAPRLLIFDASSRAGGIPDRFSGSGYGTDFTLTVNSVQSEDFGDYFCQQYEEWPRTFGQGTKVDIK	=	45.2
